Where do the numbers come from? From ChEMBL document CHEMBL5316305.

experiment: Selectivity index, ratio of IC50 for PDE4B1 S133D mutant (unknown origin) to IC50 for PDE4D7 S129D mutant (unknown origin)
Field: Ratio IC50. Provide a value for each of the compounds that follow.
Give bare numbers.

The following compounds have reported results that may help.
>  <chem smiles>
COc1ccc(Nc2cn[nH]c2)nc1-c1cccc(F)c1

>  <Ratio IC50>
5

$$$$
>  <chem smiles>
COc1cccc(-c2nc(C(=O)c3cn[nH]c3)ccc2OC(F)F)c1

>  <Ratio IC50>
2

$$$$

Continue with the next compound.
Lookup: Name the reported Ratio IC50 value associated with the compound "COc1ccc(Cc2cn[nH]c2)nc1-c1cccc(C(F)(F)F)c1"
Found: 42
